Would you mind telling me the reported EC50 of each entry?
targetOrTestSystem: Histamine H1 receptor (Cavia porcellus)
runDescription: Effective concentration for agonism activity in Endothelium-Denuded guinea pig aortic segment
Type: functional, tissue-based, Aorta
The answer should read as a number with its unit following.

-- ask // lookup EC50 for "CN(C)CCc1c[nH]c(CCC(c2ccccc2)c2ccccc2)n1"
-- reply 120 nM

Let us move to another entry and its EC50.
-- ask May I ask what EC50 has been recorded for "CNCCc1cnc(CCC(c2ccccc2)c2ccccc2)[nH]1" ?
-- reply 77.6 nM

---

targetOrTestSystem: Histamine H3 receptor (Cavia porcellus)
Sequence (Q9JI35 whole entry): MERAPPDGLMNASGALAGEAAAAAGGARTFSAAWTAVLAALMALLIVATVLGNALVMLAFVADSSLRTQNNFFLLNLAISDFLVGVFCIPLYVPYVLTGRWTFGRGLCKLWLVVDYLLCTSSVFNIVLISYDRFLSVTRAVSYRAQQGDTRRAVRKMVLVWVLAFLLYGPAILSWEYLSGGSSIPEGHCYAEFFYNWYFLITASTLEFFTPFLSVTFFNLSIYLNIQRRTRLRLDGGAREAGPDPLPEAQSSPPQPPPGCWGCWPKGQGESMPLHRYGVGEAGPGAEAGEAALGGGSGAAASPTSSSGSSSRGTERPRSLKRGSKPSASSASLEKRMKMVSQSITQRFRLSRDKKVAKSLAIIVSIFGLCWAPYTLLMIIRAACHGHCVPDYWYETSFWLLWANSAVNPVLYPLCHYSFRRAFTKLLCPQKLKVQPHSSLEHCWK
runDescription: Compound was evaluated for its antagonist affinity towards Histamine H3 receptor of guinea pig
Format: functional
details: read-out: pA2 (converted)
measuredParameter: Kb

Before answering, review these 4 worked examples.
-- ask Dear colleague, I am looking for the recorded Kb of the following molecule: "CCNCCc1c[nH]c(CCC(c2ccccc2)c2ccccc2)n1"
-- reply > 1000 nM

-- ask Which value of Kb has been reported for "c1ccc(C(CCc2nc(CCNC3CC3)c[nH]2)c2ccccc2)cc1" in the records?
-- reply > 501 nM

-- ask Which measured Kb value corresponds to "CN(C)CCc1c[nH]c(CCC(c2ccccc2)c2ccccc2)n1" ?
-- reply > 1580 nM

-- ask Name the recorded Kb for "NCCc1cnc(CCC(c2ccccc2)c2ccccc2)[nH]1" .
-- reply > 1580 nM

Next item in the queue.
-- ask Need Kb, item "CNCCc1cnc(CCC(c2ccccc2)c2ccccc2)[nH]1"
-- reply > 1580 nM

---

targetOrTestSystem: UniProt:Q8VH26
Sequence (Q8VH26 whole entry): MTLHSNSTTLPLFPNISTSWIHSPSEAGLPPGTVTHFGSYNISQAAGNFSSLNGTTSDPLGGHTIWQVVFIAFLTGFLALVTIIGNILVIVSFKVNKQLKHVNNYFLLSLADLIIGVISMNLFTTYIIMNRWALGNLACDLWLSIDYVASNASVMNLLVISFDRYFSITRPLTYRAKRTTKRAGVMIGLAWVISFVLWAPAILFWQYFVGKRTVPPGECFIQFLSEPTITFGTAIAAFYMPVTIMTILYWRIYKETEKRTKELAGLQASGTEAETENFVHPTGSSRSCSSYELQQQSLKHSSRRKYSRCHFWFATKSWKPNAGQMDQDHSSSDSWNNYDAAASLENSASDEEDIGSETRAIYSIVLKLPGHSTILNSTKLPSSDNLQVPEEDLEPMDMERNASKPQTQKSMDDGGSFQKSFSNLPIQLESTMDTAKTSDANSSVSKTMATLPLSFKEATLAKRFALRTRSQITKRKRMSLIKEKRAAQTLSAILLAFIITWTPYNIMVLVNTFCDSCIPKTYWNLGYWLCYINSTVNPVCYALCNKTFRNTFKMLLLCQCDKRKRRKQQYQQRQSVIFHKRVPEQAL
runDescription: Compound was evaluated for its antagonist affinity towards Muscarinic acetylcholine receptor M3 of guinea pig
Assay type: functional
details: read-out: pA2 (converted)
Kindly state Kb for each of the entries shown.
Give bare numbers, in µM.

-- ask Consider the compound "CCNCCc1c[nH]c(CCC(c2ccccc2)c2ccccc2)n1" and give its measured Kb.
-- reply 1.02

-- ask For "c1ccc(C(CCc2nc(CCNC3CC3)c[nH]2)c2ccccc2)cc1" , what is its reported Kb?
-- reply 0.933

-- ask Bench note: what Kb did "CN(C)CCc1c[nH]c(CCC(c2ccccc2)c2ccccc2)n1" show?
-- reply 1.15

-- ask Which Kb value belongs to "NCCc1cnc(CCC(c2ccccc2)c2ccccc2)[nH]1" ?
-- reply 2.82

Please turn your attention to the following entry.
-- ask Any idea what its Kb is? The compound is "CNCCc1cnc(CCC(c2ccccc2)c2ccccc2)[nH]1"
-- reply 3.55

---

targetOrTestSystem: Histamine H1 receptor (Cavia porcellus, UniProt P31389)
Sequence (P31389 whole entry): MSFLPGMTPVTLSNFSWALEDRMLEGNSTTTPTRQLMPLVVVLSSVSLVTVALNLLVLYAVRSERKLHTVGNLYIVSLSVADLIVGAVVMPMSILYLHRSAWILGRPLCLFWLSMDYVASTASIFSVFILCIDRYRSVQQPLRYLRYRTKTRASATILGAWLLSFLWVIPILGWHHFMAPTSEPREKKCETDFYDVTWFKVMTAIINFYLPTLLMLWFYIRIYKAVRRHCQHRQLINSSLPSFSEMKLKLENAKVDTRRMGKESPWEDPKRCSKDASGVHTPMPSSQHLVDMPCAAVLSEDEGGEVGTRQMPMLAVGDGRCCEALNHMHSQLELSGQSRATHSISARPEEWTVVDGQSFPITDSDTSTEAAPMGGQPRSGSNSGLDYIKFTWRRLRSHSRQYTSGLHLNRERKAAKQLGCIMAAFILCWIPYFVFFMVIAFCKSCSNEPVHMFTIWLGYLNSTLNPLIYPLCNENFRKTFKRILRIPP
runDescription: Effective concentration for agonist activity in guinea pig ileum whole segment
Format: functional, tissue-based
measuredParameter: log10 EC50 (log10 of the value in nM)
Give log10 of EC50, with EC50 taken in nM.

-- ask Would you mind telling me what log10 EC50 value was observed for "NCCc1c[nH]c(C(c2ccccc2)c2ccccc2)n1" ?
-- reply 3.41

-- ask // lookup log10 EC50 for "CN(C)CCc1c[nH]c(CCC(c2ccccc2)c2ccccc2)n1"
-- reply 1.92

-- ask State the recorded log10 EC50 for this entry: "c1ccc(C(CCc2nc(CCN3CCCC3)c[nH]2)c2ccccc2)cc1"
-- reply 2.47

-- ask Tell me the measured log10 EC50 of "NCCc1c[nH]c(CC(c2ccccc2)c2ccccc2)n1" , please.
-- reply 4.61

-- ask Need log10 EC50, item "CCNCCc1c[nH]c(CCC(c2ccccc2)c2ccccc2)n1"
-- reply 2.48

I need log10 EC50 for every entry listed below, if you could help.
1. CNCCc1cnc(CCC(c2ccccc2)c2ccccc2)[nH]1
2. c1ccc(C(CCc2nc(CCNC3CC3)c[nH]2)c2ccccc2)cc1

-- reply
[1.76, 2.17]

-- ask Can you look up the measured log10 EC50 of "NCCc1cnc(CCC(c2ccccc2)c2ccccc2)[nH]1" for me?
-- reply 2.26
